# Test system: THRa:RXRa (NR concentration 90 nM, RXRa partner concentration 90 nM)
# Assay comment: PBM binding z-score (relative to random genomic background probes); higher = stronger binding; sequences stand for … in GC…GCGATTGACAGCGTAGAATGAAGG
Listing of entries alongside the reported PBM binding z-score.

These solved cases illustrate the format of a correct answer.
CGTCCAAGGTTAAAGGTCAGTGAAGAGATGACGG :: 3.84
CCTTACGGGTCAAGCTTATAGCACGGGTGGTACG :: 2.23
GCGACTGGGCCATCAGCAGGTTACCATAACTTAA :: 0.132

Please fill in: PBM binding z-score reported for `CCTATTAGTTGACCATAACGGCAACCGAAGCTCG` = 0.388

Please fill in: PBM binding z-score reported for `ATCTCTAGGGAAAAGTTCAGTGAATCCCGAGGAT` = 0.24

Please fill in: PBM binding z-score reported for `GTACCAAGGTGACTAGGTCGTTGATGAGTAGGCG` = 1.87

Sourced from the supplement of paper PMC6555819
